test system: HEK293; assay: Cytotoxicity against HEK293 cells after 48 hrs by SRB assay; type: cell-based; settings: human, hek293, 48 h
experimental_endpoint: Activity

>  <line_notation>
Cc1ccc2c(c1)C(Cl)=C(Cn1cc(COc3ccc4ccc(=O)oc4c3)nn1)CCO2

>  <assay_result>
Non-toxic

$$$$
>  <line_notation>
Cc1ccc(-c2cn(CC3=C(Cl)c4cccc(C)c4OCC3)nn2)cc1

>  <assay_result>
Non-toxic

$$$$
>  <line_notation>
Cc1ccc(-c2cn(CC3=C(Cl)c4ccccc4OCC3)nn2)cc1

>  <assay_result>
Non-toxic

$$$$
>  <line_notation>
ClC1=C(Cn2cc(-c3ccccc3)nn2)CCOc2ccccc21

>  <assay_result>
Non-toxic

$$$$
>  <line_notation>
Cc1cccc2c1OCCC(Cn1cc(COc3ccc4ccc(=O)oc4c3)nn1)=C2Cl

>  <assay_result>
Non-toxic

$$$$

All values here come from ChEMBL document CHEMBL3751686.
